Molecular target: hERG (Homo sapiens, UniProt Q12809)
Sequence (Q12809 whole entry): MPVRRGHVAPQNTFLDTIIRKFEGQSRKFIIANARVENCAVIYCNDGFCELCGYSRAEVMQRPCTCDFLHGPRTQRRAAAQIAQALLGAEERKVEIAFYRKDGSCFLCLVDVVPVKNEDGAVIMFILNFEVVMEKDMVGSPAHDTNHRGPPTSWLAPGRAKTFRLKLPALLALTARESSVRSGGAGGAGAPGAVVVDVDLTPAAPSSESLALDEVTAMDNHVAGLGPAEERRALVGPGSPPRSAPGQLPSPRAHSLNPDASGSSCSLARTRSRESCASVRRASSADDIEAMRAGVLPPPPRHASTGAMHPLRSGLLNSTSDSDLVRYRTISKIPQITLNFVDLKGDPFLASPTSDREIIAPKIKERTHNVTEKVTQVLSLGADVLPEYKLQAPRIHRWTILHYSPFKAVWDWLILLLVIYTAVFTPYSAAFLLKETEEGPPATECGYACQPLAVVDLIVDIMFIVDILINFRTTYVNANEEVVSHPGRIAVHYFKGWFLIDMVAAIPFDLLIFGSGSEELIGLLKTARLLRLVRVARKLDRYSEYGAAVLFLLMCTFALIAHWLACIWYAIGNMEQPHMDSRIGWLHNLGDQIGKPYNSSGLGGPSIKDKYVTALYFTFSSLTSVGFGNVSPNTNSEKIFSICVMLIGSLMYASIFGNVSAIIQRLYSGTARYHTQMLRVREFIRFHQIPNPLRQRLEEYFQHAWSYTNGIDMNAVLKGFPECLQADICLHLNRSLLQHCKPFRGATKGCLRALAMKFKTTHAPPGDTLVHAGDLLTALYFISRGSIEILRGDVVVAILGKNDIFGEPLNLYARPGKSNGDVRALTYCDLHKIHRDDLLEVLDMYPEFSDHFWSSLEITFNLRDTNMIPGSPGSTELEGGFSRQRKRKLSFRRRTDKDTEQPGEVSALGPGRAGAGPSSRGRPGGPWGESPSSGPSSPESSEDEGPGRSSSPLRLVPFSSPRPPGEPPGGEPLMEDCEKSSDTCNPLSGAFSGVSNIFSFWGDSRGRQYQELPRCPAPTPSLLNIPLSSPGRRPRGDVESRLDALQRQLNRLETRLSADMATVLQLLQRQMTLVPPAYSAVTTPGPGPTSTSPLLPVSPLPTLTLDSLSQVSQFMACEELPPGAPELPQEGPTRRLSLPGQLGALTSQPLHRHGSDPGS
metric: IC50

{"columns": ["smiles", "metric", "experimental.value"],
 "data": [
  ["CCOC(=O)[C@@]12C[C@@H]1[C@@H](n1ccc3c(NC)nc(C#Cc4ccc(Cl)s4)nc31)[C@H](O)[C@@H]2O", "IC50", "> 30 µM"]
]}

----------
Test: Pharmacokinetics after intravenous and oral administration
Assay type: in vivo, male Sprague Dawley rats
Settings: male, Sprague-Dawley, rat, plasma, po
metric: half-life

{"columns": ["smiles", "experimental.value"],
 "data": [
  ["CCOC(=O)[C@@]12C[C@@H]1[C@@H](n1ccc3c(NC)nc(C#Cc4ccc(Cl)s4)nc31)[C@H](O)[C@@H]2O", "1.6 to 2.2 h"]
]}
